Measured values drawn from ChEMBL document CHEMBL1961873 for this set.

SYSTEM UNDER TEST: Mitogen-activated protein kinase 12 (Homo sapiens) (UniProt P53778)
Sequence (P53778 whole entry): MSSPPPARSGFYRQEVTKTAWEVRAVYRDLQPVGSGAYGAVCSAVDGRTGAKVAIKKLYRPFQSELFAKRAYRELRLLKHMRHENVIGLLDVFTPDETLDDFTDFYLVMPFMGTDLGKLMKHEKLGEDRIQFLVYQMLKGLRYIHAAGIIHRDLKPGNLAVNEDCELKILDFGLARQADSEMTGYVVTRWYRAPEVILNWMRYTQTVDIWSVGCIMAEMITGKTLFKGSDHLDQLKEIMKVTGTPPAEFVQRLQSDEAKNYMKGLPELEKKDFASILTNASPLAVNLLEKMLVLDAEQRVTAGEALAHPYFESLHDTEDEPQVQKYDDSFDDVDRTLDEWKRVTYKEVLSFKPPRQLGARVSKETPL
TEST CONDITIONS: at 0.1 µM
Description: GSK_PKIS: P38gamma mean inhibition at 0.1 uM [Nanosyn]
PROPERTY: inhibition (%)

In [3]: df
Out[3]:
                               given_smiles                         system_under_test    property  value_unit  measured_number
0  Cc1ccc(NC(=O)c2ccoc2)cc1-c1ccc(C(=O)NCC2CC2)cc1  Mitogen-activated protein kinase 12 (Homo sapiens) (UniProt P53778)  inhibition           %             2.37
1  CS(=O)(=O)CCNCc1ccc(-c2ccc3ncnc(Nc4ccc(OCc5ccccc5)c(Br)c4)c3c2)o1  Mitogen-activated protein kinase 12 (Homo sapiens) (UniProt P53778)  inhibition           %             3.43
2    Clc1ccc(CNc2nccc(-c3cnn4ncccc34)n2)cc1  Mitogen-activated protein kinase 12 (Homo sapiens) (UniProt P53778)  inhibition           %             0.66
3  CCS(=O)(=O)c1ccc(OC)c(Nc2ncc(-c3cccc(-c4ccccc4F)c3)o2)c1  Mitogen-activated protein kinase 12 (Homo sapiens) (UniProt P53778)  inhibition           %            -2.59
4  COc1cc(Nc2ncc3c(C)nc(-c4cccc(Oc5ccccc5)c4)n3n2)cc(OC)c1OC  Mitogen-activated protein kinase 12 (Homo sapiens) (UniProt P53778)  inhibition           %             0.18
5  C[C@@H](Oc1cc(-n2cnc3ccc(OC4CCN(C)CC4)cc32)sc1C(N)=O)c1ccccc1Cl  Mitogen-activated protein kinase 12 (Homo sapiens) (UniProt P53778)  inhibition           %             4.13
6     COc1cc(Nc2ncc(-c3ccccc3)o2)cc(OC)c1OC  Mitogen-activated protein kinase 12 (Homo sapiens) (UniProt P53778)  inhibition           %             -1.8
7  c1ccc(Oc2ccc(Nc3ncc(-c4ccccc4)o3)cc2)cc1  Mitogen-activated protein kinase 12 (Homo sapiens) (UniProt P53778)  inhibition           %            -0.32
8  COc1cc2ncn(-c3cc(OCc4cccs4)c(C(N)=O)s3)c2cc1OC  Mitogen-activated protein kinase 12 (Homo sapiens) (UniProt P53778)  inhibition           %                2
9  CS(=O)(=O)CCNCc1cc(-c2cc3c(Nc4ccc(OCc5cccc(F)c5)c(Cl)c4)ncnc3s2)cs1  Mitogen-activated protein kinase 12 (Homo sapiens) (UniProt P53778)  inhibition           %             4.58

---

SYSTEM UNDER TEST: Interleukin-1 receptor-associated kinase 4 (Homo sapiens);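 note: reported figure is the mean inhibition of IRAK4 activity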
TEST CONDITIONS: at 0.1 µM
Catalogue of inhibition readings, one per entry.
PROPERTY: inhibition (%)

>>> df
                               given_smiles                         system_under_test    property  measured_number
0  Fc1ccc(-c2ncn(C3CCNCC3)c2-c2ccnc(Oc3ccc(Oc4ccccc4)cc3)n2)cc1  Interleukin-1 receptor-associated kinase 4 (Homo sapiens)  inhibition              1.5
1  N#Cc1ccc(Oc2nccc(-c3c(-c4ccc(F)cc4)ncn3C3CCNCC3)n2)cc1  Interleukin-1 receptor-associated kinase 4 (Homo sapiens)  inhibition             2.17
2     O=C(Nc1n[nH]c2nc(-c3ccco3)ccc12)C1CC1  Interleukin-1 receptor-associated kinase 4 (Homo sapiens)  inhibition             -2.9
3  COc1cc(Nc2ncc3c(C)nc(-c4cccc(Oc5ccccc5)c4)n3n2)cc(OC)c1OC  Interleukin-1 receptor-associated kinase 4 (Homo sapiens)  inhibition             -1.6
4  COc1cc(C)c(N(C)C(=O)CN(C)C)cc1Nc1nc(Nc2cccc(F)c2C(N)=O)c2cc[nH]c2n1  Interleukin-1 receptor-associated kinase 4 (Homo sapiens)  inhibition            -1.54
5  c1ccc(-c2n[nH]cc2-c2ccnc(-c3ccc(OCCN4CCOCC4)cc3)c2)nc1  Interleukin-1 receptor-associated kinase 4 (Homo sapiens)  inhibition             2.23
6     NC(=O)c1cc(-c2ccncc2)cc(-c2ccccc2)c1N  Interleukin-1 receptor-associated kinase 4 (Homo sapiens)  inhibition             2.85

---

SYSTEM UNDER TEST: Tyrosine-protein kinase Blk (Homo sapiens);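 note: mean percent inhibition of BLK kinase activity, from GSK PKIS kinase inhibitor set profiling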
TEST CONDITIONS: at 1 µM
PROPERTY: inhibition (%)

                                    compound  measured_number
 0     NC(=O)c1cc(-c2ccncc2)cc(-c2ccccc2)c1N             17.5
 1              CCc1nccc2c1nc(-c1nonc1N)n2CC             1.64
 2  NS(=O)(=O)c1ccc(N/N=C2\C(=O)Nc3ccc(C(=O)NCCCn4ccnc4)cc32)cc1             12.2
 3  C/C(Nc1ccc(S(N)(=O)=O)cc1)=C1/C(=O)Nc2ccccc21               12
 4  COc1ccc2ncn(-c3cc(O[C@H](C)c4ccccc4Cl)c(C(N)=O)s3)c2c1            -2.12
 5  COc1ccc2cc(-c3c(-c4ccncc4)nc(-c4ccc([S+](C)[O-])cc4C)n3C)ccc2c1 (stereo not given)             4.39
 6  COc1cc2ncn(-c3cc(OCc4ccccc4C(F)(F)F)c(C(C)=O)s3)c2cc1OC             4.29
 7  COc1ccc(C2=C(N3CCc4ccccc43)C(=O)NC2=O)cc1             2.94
 8    O=C(Nc1n[nH]c2cc(-c3ccccc3)ccc12)C1CC1             6.79
 9  CCc1ccc(Oc2nccc(-c3c(-c4ccc(F)cc4)ncn3C3CCNCC3)n2)cc1             4.68
10  Fc1ccc(-c2ncn(C3CCNCC3)c2-c2ccnc(Oc3ccc(F)c(F)c3)n2)cc1            -2.13
11        CNC(=O)c1cncc(/C=C/c2c(C)cccc2C)c1             16.2
12  COc1cc(Nc2ncc3c(C)nc(-c4cccc(Oc5ccccc5)c4)n3n2)cc(OC)c1OC             4.56
13  CN(c1ccc(NC(=O)Nc2c(Cl)cccc2Cl)cc1)c1ccnc(Nc2cccc(CS(C)(=O)=O)c2)n1               75
14  COc1cc(Nc2ncc3c(C)nc(-c4cccc(C(F)(F)F)c4)n3n2)cc(OC)c1OC             25.1
15  NC(=O)c1ccc(Oc2nccc(-c3c(-c4ccc(F)cc4)ncn3C3CCNCC3)n2)cc1             3.04
16  Cc1nnc(-c2ccc(C)c(-c3ccc(C(=O)NCc4ccc(Cl)cc4)cc3)c2)o1              0.7
17  O=C1NC(=O)C(c2cccc(Cl)c2)=C1Nc1ccc(Cl)c(C(=O)O)c1             0.47
18  NS(=O)(=O)c1ccc(Nc2cc(-c3ccc(O)c(F)c3)n[nH]2)cc1             12.1
19  C[C@@H](Oc1cc(-n2cnc3ccc(OC4CCN(C)CC4)cc32)sc1C(N)=O)c1ccccc1Cl            -0.94

---

SYSTEM UNDER TEST: Homeodomain-interacting protein kinase 4 (Homo sapiens);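 note: reported as mean inhibition, part of the GSK PKIS dataset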
TEST CONDITIONS: at 0.1 µM
PROPERTY: inhibition (%)

>>> print(df.to_string())
                                    compound  measured_number
 0  CCc1ccc(Oc2nccc(-c3c(-c4ccc(F)cc4)ncn3C3CCNCC3)n2)cc1             0.48
 1       Fc1ccc(-c2c(-c3ccncc3)nc3n2CCS3)cc1            -1.11
 2        CNC(=O)c1cncc(/C=C/c2c(C)cccc2C)c1             1.19
 3  COc1cc(C)c(N(C)C(=O)CN(C)C)cc1Nc1nc(Nc2cccc(F)c2C(N)=O)c2cc[nH]c2n1             0.06
 4  NC(=O)c1cc(-c2ccc(F)cc2)cc(-c2ccncc2)c1N            -0.23
 5              CCc1nccc2c1nc(-c1nonc1N)n2CC             0.62
 6  C#Cc1cccc(Nc2ncnc3ccc(OCCCCNCCS(C)(=O)=O)cc23)c1             4.39
 7  COc1cc2ncn(-c3cc(OCCc4ccccc4)c(C(N)=O)s3)c2cc1OC             2.74
 8  c1ccc(-c2n[nH]cc2-c2ccnc(-c3ccc(OCCN4CCOCC4)cc3)c2)nc1             3.43
 9  Fc1ccc(-c2ncn(CCCN3CCOCC3)c2-c2ccncc2)cc1            -2.02
10  COc1ccc2cc(-c3c(-c4ccncc4)nc(-c4ccc([S+](C)[O-])cc4C)n3C)ccc2c1 (stereo unspecified)             2.25
11     NCc1ccc(-n2c(-c3nonc3N)nc3cnccc32)cc1             0.98
12  N#Cc1ccc(Oc2nccc(-c3c(-c4ccc(F)cc4)ncn3C3CCNCC3)n2)cc1             -0.7
13      CCc1cccc(CC)c1/C=C/c1cncc(C(=O)NC)c1             1.04
14  NS(=O)(=O)c1ccc(N/N=C2\C(=O)Nc3ccc(C(=O)NCCCn4ccnc4)cc32)cc1             3.92
15  O=C(Nc1n[nH]c2cc(-c3cc(F)ccc3F)ccc12)C1CC1             -0.9
16  CCC(=O)Nc1ccc(C)c(-c2ccc(C(=O)NCC3CC3)cc2)c1             0.11
17  CN(C)c1ccc2c(c1)/C(=C/Nc1ccc(S(N)(=O)=O)cc1)C(=O)N2            -0.09
18  COc1ccc(C2=C(N3CCc4ccccc43)C(=O)NC2=O)cc1             3.35
19  Cc1ccc(C(=O)NC(C)C)cc1-c1ccc(C(=O)NCC2CC2)cc1             0.31
20  CN(C)CCOc1ccc(-c2cc(-c3ccc4c(c3)CCC4=NO)c(-c3ccncc3)o2)cc1             0.15
